Where these numbers come from: ChEMBL document CHEMBL1153311

- TARGET_DESC: Prostaglandin G/H synthase 2 (Mus musculus)
- Sequence (Q05769 whole entry): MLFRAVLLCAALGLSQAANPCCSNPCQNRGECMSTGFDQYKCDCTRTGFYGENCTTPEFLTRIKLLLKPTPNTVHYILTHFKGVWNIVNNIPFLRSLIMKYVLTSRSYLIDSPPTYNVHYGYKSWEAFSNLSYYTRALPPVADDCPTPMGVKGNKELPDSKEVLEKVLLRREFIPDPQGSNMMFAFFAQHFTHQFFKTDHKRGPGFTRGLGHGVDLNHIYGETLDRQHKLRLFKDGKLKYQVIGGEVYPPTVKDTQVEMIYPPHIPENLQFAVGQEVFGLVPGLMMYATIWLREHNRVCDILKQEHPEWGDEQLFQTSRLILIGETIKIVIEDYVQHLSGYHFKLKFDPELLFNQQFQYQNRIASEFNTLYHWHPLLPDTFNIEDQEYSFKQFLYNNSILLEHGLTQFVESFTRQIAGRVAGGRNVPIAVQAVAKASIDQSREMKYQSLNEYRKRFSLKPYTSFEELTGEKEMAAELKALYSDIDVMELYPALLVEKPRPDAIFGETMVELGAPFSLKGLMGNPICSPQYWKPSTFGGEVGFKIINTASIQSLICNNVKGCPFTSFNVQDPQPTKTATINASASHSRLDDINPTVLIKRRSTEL
- EXPERIMENT_SUMMARY: Inhibition of COX2-mediated PGE2 production in LPS-stimulated mouse RAW264.7 cells by enzyme immunoassay
VALUE_TYPE: IC50 (µM)

• COc1cccc(/C=C/C(=O)c2ccccc2O)c1OC = 3.8
• COc1c(O)cc(O)c2c(=O)cc(-c3ccccc3)oc12 = 1.07
• COc1cc(/C=C/C(=O)c2ccccc2O)cc(OC)c1OC = 6.2
• O=C(/C=C/c1ccc(OCc2ccccc2)cc1)c1ccccc1O = 4.1
• O=C(/C=C/c1ccc(OCc2ccccc2)c(OCc2ccccc2)c1)c1ccccc1O = 4.6
